Target: CK2A1 (CK2α/β) (Homo sapiens)
Assay: CK2 kinase assay, CK2A1 (CK2α/β)
Format: biochemical
Settings: Table A; read-out: CK2A1 (CK2α/β) (IC50)
Measured IC50 by item
Returns: string containing the number followed by the unit.

Entry N#Cc1cc(Nc2nc(NC3CC3)c3ncc(C#N)n3n2)c(Cl)c(N2CCC(N[C@@H]3CCCC[C@@H]3F)CC2)c1 (racemic) , IC50 reported as 0.62 nM

What the record says about "CCNc1nc(Nc2cc(C#N)cc(N3CC[C@@H](NC(=O)OC)[C@H](OC(=O)CCCOP(=O)(O)O)C3)c2Cl)nn2c(C#N)cnc12" : IC50 is 3 nM

Record summary for "C[C@@H](O)C(=O)N1CC2(CCN(c3cc(C#N)cc(Nc4nc(NC5CC5)c5ncc(C#N)n5n4)c3Cl)CC2)C1" : reported IC50 = 1.41 nM

* * *

Molecular target: CK2A1 (CK2α/β) (Homo sapiens)
Assay: CK2 kinase assay, CK2A1 (CK2α/β)
Type: biochemical
Details: Table A; read-out: CK2A1 (CK2α/β) (IC50)
pIC50: −log10 of the molar value.
Decision: pIC50 compared against 9; not below it gives yes (1), below it gives no (0).

As a guide, the following entries are already answered.
{"columns": ["MOLECULE", "CLASS"],
 "data": [
  ["CCNc1nc(Nc2ccc3c(c2)c(C#N)cn3C2CCN([C@H]3COC[C@@H]3O)CC2)nn2c(C#N)cnc12 [Example 826]", "yes (1)"],
  ["COC(=O)N[C@H]1CN(C2CN(c3cc(C#N)cc(Nc4nc(NC5CC5)c5ncc(C#N)n5n4)c3Cl)C2)C[C@@H]1OC (racemic) [Example 297]", "no (0)"]
]}

Task: State whether the measured pIC50 reaches 9, counting equality as reaching it, for CN1CCN(C2CN(c3cc(OC(F)F)cc(Nc4nc(NC5CC5)c5ncc(C#N)n5n4)c3Cl)C2)CC1 [Example 405]
Output: yes (1)

Task: Could you please find out whether CCNc1nc(Nc2cc(C#N)cc(N3CC[C@H]4NC(=O)CO[C@@H]4C3)c2Cl)nn2c(C#N)cnc12 (racemic) [Example 370] has pIC50 that meets 9 or exceeds it?
Output: yes (1)

Task: Can CN1CCN(c2cc(Cl)c(Nc3nc(NC4CC4)c4ncc(C#N)n4n3)cc2C#N)CC1 [Example 432] be said to have pIC50 at or above 9?
Output: no (0)

Task: Record N#Cc1cc(Nc2nc(NC3CC3)c3ncc(C#N)n3n2)c(Cl)c(C2CCN(C(=O)CC(F)(F)F)CC2)c1 [Example 237] ; criterion: pIC50 no lower than 9. Met?
Output: yes (1)

Task: Can CC(O)c1cc(C#N)cc(Nc2nc(NC3CC3)c3ncc(C#N)n3n2)c1Cl (racemic) [Example 677] be said to have pIC50 at or above 9?
Output: yes (1)

Task: Quick check: does CC(CC(C)N1CC(C)(O)C1)c1cc(Cl)c(Nc2nc(NC3CC3)c3ncc(C#N)n3n2)cc1C#N (centres unmarked) [Example 736] have pIC50 greater than or equal to 9?
Output: no (0)

Task: Is it the case that CCNc1nc(Nc2cc(C#N)cc(N3CC[C@@H](NC(=O)OC)[C@@H](N(C)CC(C)(C)O)C3)c2Cl)nn2c(C#N)cnc12 [Example 771] has pIC50 reaching or exceeding 9?
Output: no (0)

* * *

Target: CK2A1 (CK2α/β) (Homo sapiens, UniProt P68400)
Sequence (P68400 whole entry, species assumed): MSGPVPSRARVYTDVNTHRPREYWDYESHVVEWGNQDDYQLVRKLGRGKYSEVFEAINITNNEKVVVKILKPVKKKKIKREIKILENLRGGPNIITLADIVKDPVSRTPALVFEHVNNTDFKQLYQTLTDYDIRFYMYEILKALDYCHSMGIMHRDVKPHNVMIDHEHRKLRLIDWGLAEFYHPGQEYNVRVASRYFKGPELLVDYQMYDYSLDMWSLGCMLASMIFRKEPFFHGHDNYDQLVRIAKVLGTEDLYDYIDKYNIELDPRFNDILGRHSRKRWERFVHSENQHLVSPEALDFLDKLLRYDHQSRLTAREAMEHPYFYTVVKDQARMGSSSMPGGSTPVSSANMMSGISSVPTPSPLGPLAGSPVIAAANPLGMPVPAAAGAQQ
Sequence (P67870 whole entry partner, species assumed): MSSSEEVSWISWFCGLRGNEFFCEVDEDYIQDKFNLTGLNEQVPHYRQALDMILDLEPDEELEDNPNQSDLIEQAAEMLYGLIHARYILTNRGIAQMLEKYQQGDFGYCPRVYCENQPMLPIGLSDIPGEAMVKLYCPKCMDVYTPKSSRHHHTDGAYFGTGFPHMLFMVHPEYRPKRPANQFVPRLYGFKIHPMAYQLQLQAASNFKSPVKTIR
Test: CK2 kinase assay, CK2A1 (CK2α/β)
Format: biochemical
Settings: Table A; read-out: CK2A1 (CK2α/β) (IC50)
PARAMETER: pIC50
# log scale: pIC50 equals minus log10 of the concentration in mol/L

{"columns": ["MOLECULE", "RECORDED VALUE"],
 "data": [
  ["COC[C@@H](O)CN1CCN(c2cc(C#N)cc(Nc3nc(NC4CC4)c4ncc(C#N)n4n3)c2Cl)CC1", 8.36],
  ["CO[C@H](C)C(=O)N1CC(N2CCN(c3cc(C#N)cc(Nc4nc(NC5CC5)c5ncc(C#N)n5n4)c3Cl)CC2)C1", 8.51]
]}

Lab note: "CC(C)(O)C1CCN(C2CN(c3cc(C(F)F)cc(Nc4nc(NC5CC5)c5ncc(C#N)n5n4)c3Cl)C2)CC1" gave pIC50 of 8.89

Entry under test: "N#Cc1cc(Nc2nc(NC3CC3)c3ncc(C#N)n3n2)c(Cl)c(N2CCN(C(CO)CO)CC2)c1" . Its pIC50 was 9.03

CN(C)C(=O)C1CN(c2cc(C#N)cc(Nc3nc(NC4CC4)c4ncc(C#N)n4n3)c2Cl)CCN1CC(O)CF (single isomer, unassigned) [Example 315] has a reported pIC50 of 9.43

The molecule identified as "N#Cc1cnc2c(NC3CC3)nc(Nc3cc(C(F)F)cc(N4CCOCC4)c3Cl)nn12" registered its pIC50 at 8.47

Consider "COCC(=O)N1CCN(c2cc(C#N)cc(Nc3nc(NC4CC4)c4ncc(C#N)n4n3)c2Cl)CC1" . Its measured pIC50 is 9.16

* * *

Molecular target: CK2A1 (CK2α/β) (Homo sapiens, UniProt P68400)
Experiment: CK2 kinase assay, CK2A1 (CK2α/β)
Type: biochemical
Details: Table A; read-out: CK2A1 (CK2α/β) (IC50)
Mark label 1 only when IC50 stays strictly below 1 nM. Values equal to the cut-off are label 0.

// known answers, use as guide
{"columns": ["MOLECULE", "CLASS"],
 "data": [
  ["CN1CCCC(C(=O)N2CCN(c3cc(C#N)cc(Nc4nc(NC5CC5)c5ncc(C#N)n5n4)c3Cl)CC2)C1 (racemic)", "label 0"],
  ["N#Cc1cc(Nc2nc(NC3CC3)c3ncc(C#N)n3n2)c(Cl)c(OC[C@@H]2COCCN2)c1", "label 1"],
  ["CN1CC(OC(=O)N2CCN(c3cc(C#N)cc(Nc4nc(NC5CC5)c5ncc(C#N)n5n4)c3Cl)CC2)C1", "label 1"]
]}

Task: Please determine if N#Cc1cc(Nc2nc(NC3CC3)c3ncc(C#N)n3n2)c(Cl)c(N2CCN3CCC2C3)c1 (stereo not shown) is below 1 nM in terms of IC50.
Output: label 1

Task: Is it true that IC50 reported for "N#Cc1cnc2c(NC3CC3)nc(Nc3cc(C(F)F)cc(N4CCC(C(CO)CO)CC4)c3Cl)nn12" is less than 1 nM?
Output: label 0

Task: Is IC50 of "CCNc1nc(Nc2cc(C#N)cc(N3CC[C@@H](NC[C@H](C)O)[C@H](O)C3)c2Cl)nn2c(C#N)cnc12" strictly below 1 nM?
Output: label 1

Task: IC50 strictly < 1 nM for this molecule? CN(C)C(=O)C1CN(c2cc(C#N)cc(Nc3nc(NC4CC4)c4ncc(C#N)n4n3)c2Cl)CCN1 (stereo not shown)
Output: label 1

* * *

Target: CK2A1 (CK2α/β) (Homo sapiens, UniProt P68400)
Assay: CK2 kinase assay, CK2A1 (CK2α/β)
Type: biochemical
Conditions: Table A; read-out: CK2A1 (CK2α/β) (IC50)
PARAMETER: pIC50
Schema: pIC50 number; meaning minus log10 of the concentration expressed in molar units.

The following compounds have reported results that may help.
{"columns": ["COMPOUND", "pIC50"],
 "data": [
  ["N#Cc1cc(CN2CCNCC(O)C2)c(Cl)c(Nc2nc(NC3CC3)c3ncc(C#N)n3n2)c1 (centres unmarked) [Example 669]", 9.28],
  ["CC(=O)c1cc(C#N)cc(Nc2nc(NC3CC3)c3ncc(C#N)n3n2)c1Cl [Example 675]", 9.62]
]}

Here CC(C(N)=O)N1CCC(c2cc(C#N)cc(Nc3nc(NC4CC4)c4ncc(C#N)n4n3)c2Cl)CC1 (racemic) [Example 639] was tested on CK2A1 (CK2α/β) (Homo sapiens, UniProt P68400), and its pIC50 came to 8.89

Tested on CK2A1 (CK2α/β) (Homo sapiens, UniProt P68400), the item N#Cc1cc(C=O)c(Cl)c(Nc2nc(NC3CC3)c3ncc(C#N)n3n2)c1 [Example 400] showed pIC50 equal to 9.31

Readout pIC50 for N#Cc1cc(Nc2nc(NC3CC3)c3ncc(C#N)n3n2)c(Cl)c(N2CCN(CC3COCCN3)CC2)c1 (centres unmarked) [Example 598] , test system CK2A1 (CK2α/β) (Homo sapiens, UniProt P68400), was 9.29

* * *

Target: CK2A1 (CK2α/β) (Homo sapiens, UniProt P68400)
Assay: CK2 kinase assay, CK2A1 (CK2α/β)
Format: biochemical
Details: Table A; read-out: CK2A1 (CK2α/β) (IC50)
Counter-ions that a name gives are not always drawn.
Parameter pIC50: see the listing below.
// pIC50 here means minus log10 of the molar concentration (mol/L)

response.value for N#Cc1cc(Nc2nc(NC3CC3)c3ncc(C#N)n3n2)c(Cl)c(N2CCC3C(CCN3C[C@H](O)CF)C2)c1 (stereo partly shown) (field: pIC50) = 9.04

Given item CO[C@@H]1CN(c2cc(C#N)cc(Nc3nc(NC4CC4)c4ncc(C#N)n4n3)c2Cl)C[C@H]1O (racemic) [Example 305, HCl] , the value recorded as its pIC50 is 9.19

pIC50 for "CCNc1nc(Nc2ccc3c(c2)c(C#N)cn3C2CCN(C3CN(C[C@@H](C)O)C3)CC2)nn2c(C#N)cnc12" is 8.74

Reported pIC50 for CCNc1nc(Nc2cc(C#N)cc(N3CC[C@@H](NC(=O)OC)[C@H](OC(=O)CCCN)C3)c2Cl)nn2c(C#N)cnc12 [Example 817, hydrochloride] was 8.30

Summary for this molecule, "CN1CCC(N2CC(F)(c3cc(C#N)cc(Nc4nc(NC5CC5)c5ncc(C#N)n5n4)c3Cl)C2)CC1" : pIC50 is 8.64

Please fill in: pIC50 reported for "COC(=O)N1CC(N2CCC(c3cc(C#N)cc(Nc4nc(NC5CC5)c5ncc(C#N)n5n4)c3Cl)CC2)C1" = 9.46

Measured pIC50, "N#Cc1cnc2c(NC3CC3)nc(Nc3cc(C(F)F)cc(N4CCNCC4)c3Cl)nn12" : 9.02

Origin of the recorded values: patent US9273057B2
